system: CCRIS mutagenicity, Ames/micronucleus/aberration tests; experiment: CCRIS mutagenicity studies; conditions: Test System: AMES SALMONELLA TYPHIMURIUM; Strain/Indicator: TA100; Metabolic Activation: NONE; Method: STANDARD PLATE
Active and inactive are the calls of the source. The rule behind the calls is not given here.
Parameter call: string, one of active, inactive

# fetch the recorded call for O=C(O)CNCP(=O)(O)O here
inactive

What do you get for C[C@@H]1CC[C@@]2(OC1)O[C@H]1C[C@H]3[C@@H]4CC=C5C[C@@H](O)CC[C@]5(C)[C@H]4CC[C@]3(C)[C@H]1[C@@H]2C ?
inactive

What do you get for C1COCCOCCOCCOCCOCCOCCO1 ?
inactive

What do you get for O=C1C=C(CCl)CO1 ?
active

What do you get for Cc1cc(Cc2cc(C)cc(C(C)(C)C)c2O)c(O)c(C(C)(C)C)c1 ?
inactive

What do you get for O=C1c2c(O)ccc(O)c2C(=O)C2C(O)=CC=C(O)C12 (stereo not given) ?
inactive

What do you get for O=Nc1ccc2ccccc2c1 ?
active

What do you get for CC(=O)O[C@]1(C(C)=O)CC[C@H]2[C@@H]3C4OC4(Cl)C4=CC(=O)[C@@H]5C[C@@H]5[C@]4(C)[C@H]3CC[C@@]21C (stereo not given in full) ?
inactive

What do you get for CC1=CC(=O)C=C2CC[C@@H]3[C@H](CC[C@]4(C)C(=O)CC[C@@H]34)[C@@]12C ?
inactive

What do you get for C[C@H](CC1=C(C=O)CO[C@@H]1O)C1=CCC(C)(C)C1 ?
inactive

The measured values listed here are drawn from PubChem BioAssay AID1259407.
